target: Vasopressin V2 receptor (Rattus norvegicus, UniProt Q00788)
Sequence (Q00788 whole entry): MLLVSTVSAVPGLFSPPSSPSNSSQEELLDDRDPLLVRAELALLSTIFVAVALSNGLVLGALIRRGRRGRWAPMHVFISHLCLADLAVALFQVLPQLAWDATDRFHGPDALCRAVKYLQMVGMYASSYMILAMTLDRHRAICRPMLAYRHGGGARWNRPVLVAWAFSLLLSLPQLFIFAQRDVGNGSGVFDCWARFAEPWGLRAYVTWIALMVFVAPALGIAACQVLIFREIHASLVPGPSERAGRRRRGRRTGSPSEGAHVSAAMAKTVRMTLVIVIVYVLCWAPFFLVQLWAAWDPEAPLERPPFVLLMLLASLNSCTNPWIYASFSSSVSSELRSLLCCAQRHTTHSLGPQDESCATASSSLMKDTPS
Numbered stars: 1 amine (or outer) side, 2 acyl side, 3 side chain; on linkers, the order of the positions; unused ones are H or OH. Bridge positions count the residues as written; N and C are the ends. Square brackets hold non-standard residues; d marks the D form. Peptide text beside a SMILES is read from it. X1 = O=C([C@@]1(N[*:1])CCc2ccccc2C1)[*:2]; Atc(2S) = N[C@@]1(C(=O)O)CCc2ccccc2C1; Mpa = O=C(O)CCS; Sar = CNCC(=O)O
MEASURED_METRIC: pKd
// pKd is dimensionless: -log10 of concentration (M)

Which value of pKd has been reported for CC[C@H](C)[C@@H]1NC(=O)[C@@]2(CCc3ccccc3C2)NC(=O)CCSSC[C@@H](C(=O)N(C)CC(=O)N[C@@H](CCCN=C(N)N)C(=O)NCC(N)=O)NC(=O)[C@H](CC(N)=O)NC(=O)[C@H](CCC(N)=O)NC1=O ([Mpa][Atc(2S)]IQNC[Sar]RG-NH2; disulfide 1-6) in the records?
5.64

Which value of pKd has been reported for CC[C@H](C)[C@@H]1NC(=O)[C@@H](Cc2c[nH]c3ccccc23)NC(=O)CC2(CCCCC2)SSC[C@@H](C(=O)N(C)CC(=O)N[C@@H](CCCNC(=N)N)C(=O)NCC(N)=O)NC(=O)[C@H](CC(N)=O)NC(=O)[C@H](CCC(N)=O)NC1=O in the records?
8.52

Which value of pKd has been reported for CC[C@H](C)[C@@H]1NC(=O)[C@]2(CCc3ccccc3C2)NC(=O)CCSSC[C@@H](C(=O)N(C)CC(=O)N[C@@H](CCCN=C(N)N)C(=O)NCC(N)=O)NC(=O)[C@H](CC(N)=O)NC(=O)[C@H](CCC(N)=O)NC1=O ([Mpa][X1]IQNC[Sar]RG-NH2; disulfide 1-6) in the records?
5.27

Reference source: ChEMBL document CHEMBL1132683
